Target: T1, TX1BP3, O14907
T1 sequence (O14907 10-122, limits assumed, looked up): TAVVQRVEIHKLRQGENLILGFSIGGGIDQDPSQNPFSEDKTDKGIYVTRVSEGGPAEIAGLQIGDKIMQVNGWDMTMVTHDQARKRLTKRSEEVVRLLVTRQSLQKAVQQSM
Experiment: holdup assay
Parameters: key: below the threshold = too weak to quantify, mostly under pKd 3.1 to 4
Conditions: plain residues with an end cap or a label only (N-terminal biotin on a linker: ado-ado)
Quick rule for you: pKd at 4 or higher means met, lower means not met.

[[record]]
binder = "MQHQRTHTRV [ZSCAN30, Q86W11]"
labelclass = "not met"

[[record]]
binder = "SPDRDRESIV [SCN5A, Q14524]"
labelclass = "met"

[[record]]
binder = "NTLNRKTTPV [CACNG8, Q8WXS5]"
labelclass = "met"

[[record]]
binder = "QSGLYESEEL [MYOT, Q9UBF9]"
labelclass = "not met"

